Every entry's value here was drawn from ChEMBL document CHEMBL4028859.

protocol_summary: AUC (infinity) in Swiss albino mouse at 10 mg/kg, po administered as single dose by LC-MS/MS analysis
Format: ADME, organism-based
Set-up: dose 10 mg/kg, time infinity, route oral
condition_label: Swiss albino, in vivo
quantity_measured: AUC(0-inf)

CC(C)(C)n1nc(Cc2cccc(Cl)c2)c2c(N)ncnc21 yielded AUC(0-inf) of 931 ng·h/mL

----------
protocol_summary: Initial concentration in Swiss albino mouse at 3 mg/kg, iv administered as single dose by LC-MS/MS analysis
Format: ADME, organism-based
condition_label: in vivo
Each entry below lists one item and its recorded C0 value.
Give the value in ng/mL but do not write ng/mL after it.

CC(C)(C)n1nc(Oc2cccc(Cl)c2)c2c(N)ncnc21: 5470
Nc1ncnc2c1c(Oc1cccc(Cl)c1)nn2CC1CCNCC1: 536
CC(C)(C)n1nc(Cc2cccc(Cl)c2)c2c(N)ncnc21: 6890
Cc1cccc(Oc2nn(C(C)(C)C)c3ncnc(N)c23)c1: 2740

The molecule Nc1ncnc2c1c(Oc1cccc(Cl)c1)nn2CC1CCNCC1(F)F (stereo not given) showed C0 equal to 1210

----------
protocol_summary: AUClast in Swiss albino mouse at 3 mg/kg, iv administered as single dose by LC-MS/MS analysis
Assay type: ADME, organism-based
Design: dose 3 mg/kg, time 0 - last, route intravenous
condition_label: Swiss albino, in vivo
quantity_measured: AUC(0-t) (ng·h/mL)
Only the number, expressed in ng·h/mL, is required.

The value of AUC(0-t) measured for the compound CC(C)(C)n1nc(Cc2cccc(Cl)c2)c2c(N)ncnc21 turned out to be 1080
